These data points were gathered from paper PMC7249006.

System: gastric ulcers in rats
Test: Gastric ulcerogenic activity
Details: 10 mg/kg orally, rats fasted 18 h, sacrificed after 4 h; Mean ± SE
experimental-endpoint: Score: No of Gastric Ulcers
# output: bare number, no unit

# count of solved cases: 4
O=C1N=C(NN=Cc2ccc(-n3nc(-c4ccccc4)ccc3=O)cc2)SC1=C1C(=O)Nc2ccccc21 [Compound 12] :: 0
O=c1ccc(-c2ccccc2)nn1-c1ccc(C=NNc2nc(-c3ccccc3)cs2)cc1 [Compound 9a] :: 0
COc1ccc(/C=C2\SC(N/N=C/c3ccc(-n4nc(-c5ccccc5)ccc4=O)cc3)=NC2=O)cc1 [Compound 16b] :: 0.12
O=C1CSC(=NN=Cc2ccc(-n3nc(-c4ccccc4)ccc3=O)cc2)N1c1ccccc1 [Compound 17] :: 0.42

Entry O=c1ccc(-c2ccccc2)nn1-c1ccc(C=NNc2nc(-c3ccc(Br)cc3)cs2)cc1 [Compound 9b] , tested on gastric ulcers in rats, has a reported Score: No of Gastric Ulcers of 0.33
